test-protocol: self-splicing fitness, log relative to wild type (ln ratio); higher = more splicing; Tetrahymena group I intron in knt gene, E. coli kanamycin selection, DiMSum; sequences stand for … in CUCUCU…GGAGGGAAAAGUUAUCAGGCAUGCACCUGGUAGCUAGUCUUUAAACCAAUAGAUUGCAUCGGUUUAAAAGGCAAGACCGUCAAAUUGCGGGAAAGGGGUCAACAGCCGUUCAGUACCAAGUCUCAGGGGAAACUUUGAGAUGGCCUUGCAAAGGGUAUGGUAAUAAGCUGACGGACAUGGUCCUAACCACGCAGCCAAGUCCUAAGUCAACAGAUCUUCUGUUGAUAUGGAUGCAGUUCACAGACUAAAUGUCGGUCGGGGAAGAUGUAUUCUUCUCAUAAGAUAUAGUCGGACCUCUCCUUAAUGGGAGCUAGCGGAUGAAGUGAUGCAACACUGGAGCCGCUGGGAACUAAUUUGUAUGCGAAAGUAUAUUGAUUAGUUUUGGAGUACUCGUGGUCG;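 further: selection with 25 µg/mL kanamycin versus none on LB agar overnight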
condition-notes: 30 °C
Would you kindly list self-splicing fitness (ln) for each of these sequences?
Answers are plain numbers.

Look over these answered cases.
AGCAAGCAAUAUUACGGCAU : -0.0513
GAGCAGCAAUAUUACGCACG : -1.11
UUCAAGCAAUAUUACGUGUG : -1.25
CCUGAGCAAUAUUACGAUCG : -3.71

Continue with the sequence presented below.
Recorded self-splicing fitness (ln) of `GGGGAGCAAUAUUACGGUAA` , please. -2.05
